Test: Cytotoxicity against human MCF10 cells assessed as cell viability at 33.3 uM after 72 hrs by cell titer glo assay
Assay type: cell-based
Conditions: read-out: Activity
measureName: viability at 72 h, 33.3 µM

Cc1ccc(/C=C/CC(O)c2cc(O)c3c(c2O)C(=O)c2ccccc2C3=O)cc1 (configuration not stated)    > 50%
O=C1c2ccccc2C(=O)c2c(O)c(C(O)C/C=C/c3ccccc3)cc(O)c21 (configuration not stated)    > 50%
Cc1cccc(/C=C/CC(O)c2cc(O)c3c(c2O)C(=O)c2ccccc2C3=O)c1 (configuration not stated)    > 50%
O=C1c2ccccc2C(=O)c2c(O)c(C(O)C/C=C/c3ccc(F)cc3)cc(O)c21 (configuration not stated)    > 50%
O=C1c2ccccc2C(=O)c2c(O)c(C(O)C/C=C/c3cccc(Br)c3)cc(O)c21 (configuration not stated)    > 50%

### Prompt // fetch viability at 72 h, 33.3 µM given entry COc1ccccc1/C=C/CC(O)c1cc(O)c2c(c1O)C(=O)c1ccccc1C2=O (configuration not stated)
### Response > 50%

### Prompt // fetch viability at 72 h, 33.3 µM given entry O=C1c2ccccc2C(=O)c2c(O)c(C(O)C/C=C/c3ccc(Cl)cc3)cc(O)c21 (configuration not stated)
### Response > 50%

### Prompt // fetch viability at 72 h, 33.3 µM given entry Cc1ccccc1/C=C/CC(O)c1cc(O)c2c(c1O)C(=O)c1ccccc1C2=O (configuration not stated)
### Response > 50%
